Target: Integrin alpha-4/beta-1 (Homo sapiens, UniProt P05556+P13612)
Assay: Inhibition of human VCAM1 binding to integrin alpha4beta1 receptor in human Ramos cells labeled with Calcein AM relative to RO0270608
Format: cell-based
METRIC_NAME: Ratio IC50

Cc1cccc(Cl)c1C(=O)N[C@@H](Cc1ccc(-c2c(C(F)(F)F)cc(C)n(C)c2=O)cc1)C(=O)O; 0.47
CCn1c(C)cc(C(F)(F)F)c(-c2ccc(C[C@H](NC(=O)c3c(Cl)cccc3Cl)C(=O)O)cc2)c1=O; 0.4
Cc1cccc(C(C)C)c1C(=O)N[C@@H](Cc1ccc(-c2c(C(F)(F)F)cc(C)n(C)c2=O)cc1)C(=O)O; 0.36

1 = Cc1cc(C(F)(F)F)c(-c2ccc(C[C@H](NC(=O)c3c(Cl)cccc3Cl)C(=O)O)cc2)c(=O)n1Cc1ccccc1
2 = Cc1cccc(Cl)c1C(=O)N[C@@H](Cc1ccc(-c2cccn(C)c2=O)cc1)C(=O)O
3 = Cc1cc(C(F)(F)F)c(-c2ccc(C[C@H](NC(=O)c3c(Cl)cccc3Cl)C(=O)O)cc2)c(=O)n1C
4 = CCc1cccc(C)c1C(=O)N[C@@H](Cc1ccc(-c2c(C(F)(F)F)cc(C)n(C)c2=O)cc1)C(=O)O
5 = Cc1cccc(Cl)c1C(=O)N[C@@H](Cc1ccc(-c2c(C)cc(C(F)(F)F)n(C)c2=O)cc1)C(=O)O
Inquiry: Rank items: key Ratio IC50, increasing. Answer format: the labels, ordered as requested.
Reply text: 2, 5, 1, 4, 3
(2: 0.03, 5: 0.06, 1: 0.12, 4: 0.41, 3: 0.81)

----------
Experiment: AUC in monkey at 15 mg/kg, iv
Conditions: cynomolgus monkey, plasma
METRIC_NAME: AUC (ng·h/mL)
Quick reminder: number only, in ng·h/mL, skip the unit.

Inquiry: Query: AUC; subject: `Cc1cc(C(F)(F)F)c(-c2ccc(C[C@H](NC(=O)c3c(Cl)cccc3Cl)C(=O)O)cc2)c(=O)n1C`
Reply text: 35100

----------
Target: UniProtKB Q12809
Sequence (Q12809 whole entry): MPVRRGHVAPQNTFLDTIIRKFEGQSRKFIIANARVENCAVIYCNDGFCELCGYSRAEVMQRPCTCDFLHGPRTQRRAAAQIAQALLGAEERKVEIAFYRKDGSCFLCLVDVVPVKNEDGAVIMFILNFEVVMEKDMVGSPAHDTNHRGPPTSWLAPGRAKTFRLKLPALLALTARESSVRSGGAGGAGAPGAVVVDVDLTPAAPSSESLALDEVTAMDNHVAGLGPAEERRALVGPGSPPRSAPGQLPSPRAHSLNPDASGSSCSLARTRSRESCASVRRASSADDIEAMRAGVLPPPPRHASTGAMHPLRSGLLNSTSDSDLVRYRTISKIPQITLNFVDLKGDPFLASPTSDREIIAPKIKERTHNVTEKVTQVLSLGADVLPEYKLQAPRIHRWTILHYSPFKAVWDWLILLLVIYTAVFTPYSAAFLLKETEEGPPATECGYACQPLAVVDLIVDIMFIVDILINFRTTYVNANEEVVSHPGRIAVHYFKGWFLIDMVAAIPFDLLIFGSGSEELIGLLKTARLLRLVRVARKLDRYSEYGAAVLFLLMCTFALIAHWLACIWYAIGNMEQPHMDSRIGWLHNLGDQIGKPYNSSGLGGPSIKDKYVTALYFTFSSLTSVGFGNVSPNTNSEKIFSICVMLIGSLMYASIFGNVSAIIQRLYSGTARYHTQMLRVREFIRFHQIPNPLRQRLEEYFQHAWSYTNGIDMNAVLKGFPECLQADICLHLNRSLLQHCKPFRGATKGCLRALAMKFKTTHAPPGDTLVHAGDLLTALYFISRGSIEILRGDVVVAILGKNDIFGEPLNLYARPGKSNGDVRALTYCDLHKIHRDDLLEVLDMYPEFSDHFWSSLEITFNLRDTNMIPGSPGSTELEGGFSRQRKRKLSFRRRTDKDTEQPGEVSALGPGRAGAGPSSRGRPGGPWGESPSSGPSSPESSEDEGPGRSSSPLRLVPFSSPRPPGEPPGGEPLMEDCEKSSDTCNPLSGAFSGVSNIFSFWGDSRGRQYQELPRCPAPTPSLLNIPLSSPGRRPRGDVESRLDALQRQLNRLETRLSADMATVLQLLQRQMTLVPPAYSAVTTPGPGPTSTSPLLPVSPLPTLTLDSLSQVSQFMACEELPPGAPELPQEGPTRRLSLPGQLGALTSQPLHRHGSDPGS
Experiment: Inhibition of human ERG
As shown below, each of these molecules has a reported IC20 value.
Report as a plain number; the unit µM is understood.

Please review the entries below; each comes with its answer.
Cc1cc(C(F)(F)F)c(-c2ccc(C[C@H](NC(=O)c3c(Cl)cccc3Cl)C(=O)OCCCN3CCOCC3)cc2)c(=O)n1C; 2.9
CCOC(=O)[C@H](Cc1ccc(-c2c(C(F)(F)F)cc(C)n(C)c2=O)cc1)NC(=O)c1c(Cl)cccc1Cl; 2.7
Cc1cc(C(F)(F)F)c(-c2ccc(C[C@H](NC(=O)c3c(Cl)cccc3Cl)C(=O)OCCN3CCOCC3)cc2)c(=O)n1C; 11

Attention now turns to another entry.
Inquiry: Recorded IC20 for `CCN(CC)CCOC(=O)[C@H](Cc1ccc(-c2c(C(F)(F)F)cc(C)n(C)c2=O)cc1)NC(=O)c1c(Cl)cccc1Cl` , please?
Reply text: 11.7

----------
Test: Solubility in water
Format: physicochemical
METRIC_NAME: solubility (µg/mL)
Quick reminder: number only, in µg/mL, skip the unit.

Inquiry: What solubility value was documented for this compound, `CCOC(=O)[C@H](Cc1ccc(-c2c(C(F)(F)F)cc(C)n(C)c2=O)cc1)NC(=O)c1c(Cl)cccc1Cl` ?
Reply text: 6
